For each of the molecules below, state its rHep CLint.
# Measurement Description: Metabolic stability in rat hepatocytes (rHep)
# Details: n = 1 or geometric mean of n = 2-3
Answer with a number only, understood to be in μL/min/1E6.

Kindly note the recorded rHep CLint for N#C[C@@H]1CSCN1C(=O)CNC(=O)c1ccnc2ccc(N3C[C@@H](F)[C@@H](F)C3)cc12 , which is 20

Kindly note the recorded rHep CLint for N#C[C@@H]1CSCN1C(=O)CNC(=O)c1ccnc2ccc(N3C[C@@H]4CC[C@H]3C4)cc12 (mixture of isomers) , which is 250

Kindly note the recorded rHep CLint for N#C[C@@H]1CSCN1C(=O)CNC(=O)c1ccnc2ccc(N3C[C@H]4CCC[C@@H](C3)O4)cc12 , which is 44

Kindly note the recorded rHep CLint for N#C[C@@H]1CSCN1C(=O)CNC(=O)c1ccnc2ccc(N3CC(CC(F)(F)F)C3)cc12 , which is 4.7

Kindly note the recorded rHep CLint for C[C@@H]1COC[C@H](C)N1c1ccc2nccc(C(=O)NCC(=O)N3CSC[C@H]3C#N)c2c1 , which is 20

Kindly note the recorded rHep CLint for CO[C@@H]1CCN(c2ccc3nccc(C(=O)NCC(=O)N4CSC[C@H]4C#N)c3c2)C1 , which is 8.5

Kindly note the recorded rHep CLint for N#C[C@@H]1CSCN1C(=O)CNC(=O)c1ccnc2ccc(-c3ccc(F)cn3)cc12 , which is 7.4

###

For each of the compounds below, state its solubility.
# Measurement Description: Kinetic solubility
# Details: kinetic from dmso stock, Solubility, kinetic solubility; n = 1 or average of n = 2-3
Answer with a number only, understood to be in µM.

Kindly note the recorded solubility for N#C[C@@H]1CSCN1C(=O)CNC(=O)c1ccnc2ccc(N3CC(CCF)C3)cc12 [Example 146] , which is 24

Kindly note the recorded solubility for CCC1(C)CN(c2ccc3nccc(C(=O)NCC(=O)N4CSC[C@H]4C#N)c3c2)C1 [Example 137] , which is 74

Kindly note the recorded solubility for Cc1ccc(C2CN(c3ccc4nccc(C(=O)NCC(=O)N5CSC[C@H]5C#N)c4c3)C2)cc1 [Example 183] , which is 19

Kindly note the recorded solubility for CC1(C)Cc2c(-c3ccc4nccc(C(=O)NCC(=O)N5CSC[C@H]5C#N)c4c3)cnn2C1 [Example 123] , which is 280

Kindly note the recorded solubility for CC1(CF)CCN(c2ccc3nccc(C(=O)NCC(=O)N4CSC[C@H]4C#N)c3c2)CC1 [Example 37] , which is 210

Kindly note the recorded solubility for N#C[C@@H]1CSCN1C(=O)CNC(=O)c1ccnc2ccc(-n3ccc(C(F)(F)F)n3)cc12 [Example 118] , which is 20

Kindly note the recorded solubility for COC[C@@H]1CN(c2ccc3nccc(C(=O)NCC(=O)N4CSC[C@H]4C#N)c3c2)CCO1 [Example 93] , which is 300

###

For each of the compounds below, state its pIC50.
pIC50 (log units): -log10 of the concentration in mol/L.

Prolyl endopeptidase, Prolyl Oligopeptidase (hPREP) (Homo sapiens (Human), UniProt P48147) assay, compound N#C[C@@H]1CSCN1C(=O)CNC(=O)c1ccnc2ccc(N3C4CCCC3COC4)cc12 , recorded pIC50 = 6.44

Prolyl endopeptidase, Prolyl Oligopeptidase (hPREP) (Homo sapiens (Human), UniProt P48147) assay, compound N#C[C@@H]1CSCN1C(=O)CNC(=O)c1ccnc2ccc(N3CC4(CC(C(F)(F)F)C4)C3)cc12 , recorded pIC50 = 5.70

Prolyl endopeptidase, Prolyl Oligopeptidase (hPREP) (Homo sapiens (Human), UniProt P48147) assay, compound C[C@H]1COC[C@H](C)N1c1ccc2nccc(C(=O)NCC(=O)N3CSC[C@H]3C#N)c2c1 , recorded pIC50 = 6.24

Just for reference, patent US20230312550A1 is where these values come from.
